# assaySystem: UniProtKB Q01064
# measurementDescription: PDE1b inhibitory assay (IMAP TR-FRET)
# appliedConditions: negative log of half-maximal molar inhibitory concentration; 200 nM FAM-cAMP; reported as ranges
valueKind: PDE1b (pEC50)

Looking up COc1ccc(Cn2c(=O)n3ncnc3c3c4c(sc32)CN(C(=O)C2CC2)CC4)c(F)c1 , I found its PDE1b (pEC50) recorded as >7

For record COc1ccc(Cn2c(=O)n3ncnc3c3c4c(sc32)CN(CC2CCCCO2)CC4)cc1 (stereo not shown) the listed PDE1b (pEC50) is >7

COc1ccc(Cn2c(=O)n3ncnc3c3c4c(sc32)CN(Cc2ccc(F)cc2)CC4)cc1 has a reported PDE1b (pEC50) of >7

get_value(item= COc1ccc(Cn2c(=O)n3ncnc3c3c4c(sc32)CN(Cc2ncccn2)CC4)cc1 , readout=PDE1b (pEC50)) returns >7

* * *

Assign EC50 to each entry below.
# assaySystem: human PDE1b enzyme (Homo sapiens (Human), UniProt Q01064)
# measurementDescription: PDE1b inhibitory assay (IMAP TR-FRET)

Summary: COc1ccc(Cn2c(=O)n3ncnc3c3cc(-c4c(C)noc4C)sc32)cc1 , human PDE1b enzyme (Homo sapiens (Human), UniProt Q01064), EC50 = 100 to 1000 nM

COc1ccc(Cn2c(=O)n3ncnc3c3c(C)c(Br)sc32)cc1 tested on human PDE1b enzyme (Homo sapiens (Human), UniProt Q01064) gave EC50: 100 to 1000 nM

Observed EC50 on human PDE1b enzyme (Homo sapiens (Human), UniProt Q01064), entry COc1ccc(Cn2c(=O)n3ncnc3c3c4c(sc32)N(C(=O)c2ccccc2)CCC4)cc1OC , equals 1000 to 10000 nM

The measured EC50 that COc1ccc(Cn2c(=O)n3ncnc3c3cc(CN(C)C4CCOCC4)sc32)cc1 showed for human PDE1b enzyme (Homo sapiens (Human), UniProt Q01064) is 1000 to 10000 nM

human PDE1b enzyme (Homo sapiens (Human), UniProt Q01064) EC50 of COc1ccc(Cn2c(=O)n3ncnc3c3c(C)c(CN4C[C@@H](C)N[C@@H](C)C4)sc32)cc1 is 100 to 1000 nM

Item COc1ccc(Cn2c(=O)n3ncnc3c3c4c(sc32)CN(C(=O)C2CCNC2)CC4)cc1 (stereo not drawn) ; assay system human PDE1b enzyme (Homo sapiens (Human), UniProt Q01064); EC50 reported as 100 to 1000 nM

Reported EC50 (human PDE1b enzyme (Homo sapiens (Human), UniProt Q01064)) for entry COc1ccc(Cn2c(=O)n3ncnc3c3c(C)csc32)cc1 is 100 to 1000 nM

# value of EC50, human PDE1b enzyme (Homo sapiens (Human), UniProt Q01064), item COc1ccc(Cn2c(=O)n3ncnc3c3c(C)c(CO)sc32)cc1 = 100 to 1000 nM

Short answer on human PDE1b enzyme (Homo sapiens (Human), UniProt Q01064) for COc1ccc(Cn2c(=O)n3ncnc3c3cc(CN4C[C@@H](C)O[C@@H](C)C4)sc32)c(F)c1F , EC50: 1000 to 10000 nM

The observed EC50 for CCN(Cc1cc2c(s1)n(Cc1ccc(OC)cc1)c(=O)n1ncnc21)CC1CCOCC1 when tested with human PDE1b enzyme (Homo sapiens (Human), UniProt Q01064) stands at 1000 to 10000 nM

Record O=c1n(Cc2ccc(Cl)cc2)c2sccc2c2ncnn12 ; system human PDE1b enzyme (Homo sapiens (Human), UniProt Q01064); EC50 = 100 to 1000 nM

Record for Cc1oc2c(c1C)c1ncnn1c(=O)n2Cc1ccc(Cl)cc1 under target or system human PDE1b enzyme (Homo sapiens (Human), UniProt Q01064): EC50 reported as 100 to 1000 nM
